EXPERIMENT: Plasma pharmacokinetics of CR665 after single IV infusion in human subjects
CONDITION_DESCRIPTION: male, human, plasma, iv, 0.09 mg/kg, tmax, males, 5-minute IV infusion, median
Structures can show the parent of a compound that is named as a salt. Non-standard residues stand in square brackets, D forms with d. Residues, ends and D or L forms follow the SMILES beside them. *: point of attachment. NH(4-picolyl) = c1cc(CN*)ccn1; dNle = CCCC[C@@H](N)C(=O)O
READOUT_NAME: Tmax (min)
Use min as the unit, but write only the number.

Tmax in this record for CCCC[C@@H](NC(=O)[C@@H](Cc1ccccc1)NC(=O)[C@H](N)Cc1ccccc1)C(=O)N[C@H](CCCNC(=N)N)C(=O)NCc1ccncc1 [CR665, acetate salt] (H-[dF][dF][dNle][dR]-{NH(4-picolyl)}) : 5

---

EXPERIMENT: Plasma pharmacokinetics of CR665 after single IV infusion in human subjects
CONDITION_DESCRIPTION: female, human, plasma, iv, 0.24 mg/kg, Vz, females, 1-hour IV infusion, geometric mean
Where a name gives a salt, the structure may show the parent alone. Non-standard residues stand in square brackets, D forms with d. Residues, ends and D or L forms follow the SMILES beside them. *: point of attachment. NH(4-picolyl) = c1cc(CN*)ccn1; dNle = CCCC[C@@H](N)C(=O)O
READOUT_NAME: Vd (L)
Use L as the unit, but write only the number.

Vd in this record for CCCC[C@@H](NC(=O)[C@@H](Cc1ccccc1)NC(=O)[C@H](N)Cc1ccccc1)C(=O)N[C@H](CCCNC(=N)N)C(=O)NCc1ccncc1 [CR665, acetate salt] (H-[dF][dF][dNle][dR]-{NH(4-picolyl)}) : 55.7

---

EXPERIMENT: Plasma pharmacokinetics of CR665 after single IV infusion in human subjects
CONDITION_DESCRIPTION: female, human, plasma, intravenous, 0.24 mg/kg, Vss, geometric least squares mean, females, 1-hour infusion
Structures can show the parent of a compound that is named as a salt. Non-standard residues stand in square brackets, D forms with d. Residues, ends and D or L forms follow the SMILES beside them. *: point of attachment. NH(4-picolyl) = c1cc(CN*)ccn1; dNle = CCCC[C@@H](N)C(=O)O
READOUT_NAME: Vd (L)
Use L as the unit, but write only the number.

Vd in this record for CCCC[C@@H](NC(=O)[C@@H](Cc1ccccc1)NC(=O)[C@H](N)Cc1ccccc1)C(=O)N[C@H](CCCNC(=N)N)C(=O)NCc1ccncc1 [CR665, acetate salt] (H-[dF][dF][dNle][dR]-{NH(4-picolyl)}) : 17

---

EXPERIMENT: Plasma pharmacokinetics of CR665 after single IV infusion in human subjects
CONDITION_DESCRIPTION: male, human, plasma, iv, 0.48 mg/kg, Vss, males, 0.48 mg/kg, 1 hour IV infusion, geometric mean
Counter-ions that a name gives are not always drawn. Non-standard residues stand in square brackets, D forms with d. Residues, ends and D or L forms follow the SMILES beside them. *: point of attachment. NH(4-picolyl) = c1cc(CN*)ccn1; dNle = CCCC[C@@H](N)C(=O)O
READOUT_NAME: Vd

Vd in this record for CCCC[C@@H](NC(=O)[C@@H](Cc1ccccc1)NC(=O)[C@H](N)Cc1ccccc1)C(=O)N[C@H](CCCNC(=N)N)C(=O)NCc1ccncc1 [CR665, acetate salt] (H-[dF][dF][dNle][dR]-{NH(4-picolyl)}) : 22.4 L

Origin of values: patent US8217000B2
